# Test system: Plasmodium falciparum
# test description: GSK_TCMDC: Inhibition of Plasmodium falciparum 3D7 in whole red blood cells, using parasite LDH activity as an index of growth. Test compounds present at 2uM
# Assay type: functional
outcome measure: Inhibition (%)
Numbers only; they are read as %.

Some molecules with recorded Inhibition:
1. C=CCn1cc(C2CCN(CCCCNC(=O)c3sc(-c4ccc(C(F)(F)F)cc4)nc3CO)CC2)c2cc(OC)ccc21 : 91
2. COc1ccc2nc3cc(Cl)ccc3c(NCCN3CCN(C)CC3)c2c1.Cl : 100
3. COc1ccc(-c2ccnc(-c3cccc(-c4ccccn4)n3)c2)cc1 : 97
4. CCCC(C)NC[C@@H](O)[C@H](Cc1ccccc1)NC(=O)c1cc(NCC)cc(N2CCCCS2(=O)=O)c1.Cl (stereo not given in full) : 100

Prompt: Identify measured Inhibition associated with CC(CN1CCN(C)CC1)C(=O)Nc1cccc(-c2ccc(-c3nc4cc(F)ccc4[nH]3)cc2)c1 (stereo not given)
Completion: 100

# credit: ChEMBL document CHEMBL1157539
